# TARGET ENTITY: Glycogen synthase kinase-3 beta (Homo sapiens, UniProt P49841)
# Sequence (P49841 whole entry): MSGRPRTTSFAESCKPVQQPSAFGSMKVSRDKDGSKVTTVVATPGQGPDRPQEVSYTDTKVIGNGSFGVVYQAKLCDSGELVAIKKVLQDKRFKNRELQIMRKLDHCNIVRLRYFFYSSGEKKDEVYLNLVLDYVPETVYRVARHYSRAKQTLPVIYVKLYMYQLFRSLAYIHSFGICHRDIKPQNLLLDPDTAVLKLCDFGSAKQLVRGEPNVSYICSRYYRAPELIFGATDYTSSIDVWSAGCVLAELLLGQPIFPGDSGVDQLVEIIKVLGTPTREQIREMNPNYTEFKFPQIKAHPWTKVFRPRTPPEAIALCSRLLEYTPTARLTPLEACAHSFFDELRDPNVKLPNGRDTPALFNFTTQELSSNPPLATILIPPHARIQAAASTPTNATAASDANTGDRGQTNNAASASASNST
# ASSAY TEXT: concentration-response blocking of human GSK3B – biochemical, luminescence, cell-free homogeneous, retest, dose response (AID 434954)
READOUT NAME: EC50

The following molecules have reported results that may help.
MOLECULE: CC(=O)N1CCc2c(sc(NC(=O)C3CCCN3S(=O)(=O)c3cccs3)c2C(N)=O)C1 (stereo not given)
READOUT NAME: EC50
VALUE REPORTED: > 300 µM
--
MOLECULE: COc1cccc2c1cc1c(=O)n(CC(=O)NCCCN3CCN(C)CC3)nc(C)n12
READOUT NAME: EC50
VALUE REPORTED: > 300 µM
--
MOLECULE: CC(=O)c1cccc(Nc2nc(-c3ccccc3)nc3ccccc23)c1
READOUT NAME: EC50
VALUE REPORTED: > 300 µM
--
MOLECULE: CCN(CC)Cc1c(C(=O)OC(C)C)nnn1-c1nonc1N
READOUT NAME: EC50
VALUE REPORTED: > 300 µM
--
MOLECULE: CCCn1nc(NC(=O)C(C)C)c2cc3cc(OC)ccc3nc21
READOUT NAME: EC50
VALUE REPORTED: > 300 µM
--
MOLECULE: N#Cc1c(O)nc(SCC(=O)c2cccs2)nc1-c1cccs1
READOUT NAME: EC50
VALUE REPORTED: > 300 µM
--
MOLECULE: Nc1nonc1-n1nnc(C(=O)NN=Cc2cccc(F)c2)c1CN1CCCCCC1
READOUT NAME: EC50
VALUE REPORTED: 2.56 µM
--
MOLECULE: COc1cc(CN=Nc2ccc(C(F)(F)F)cn2)ccc1O
READOUT NAME: EC50
VALUE REPORTED: 10.1 µM

Checklist item: EC50 tested on Glycogen synthase kinase-3 beta (Homo sapiens, UniProt P49841), entry CN(C)c1ccc(C(=O)NN2C(=O)c3ccccc3C2=O)cc1 , value?
> 300 µM

Checklist item: EC50 tested on Glycogen synthase kinase-3 beta (Homo sapiens, UniProt P49841), entry CCCn1nc(NC(=O)c2cccs2)c2cc3cc(C)ccc3nc21 , value?
> 300 µM

###

# TARGET ENTITY: Glycogen synthase kinase-3 beta (Homo sapiens, UniProt P49841)
# ASSAY TEXT: concentration-response blocking of human GSK3B – biochemical, luminescence, cell-free homogeneous, retest, dose response (AID 434954)
pEC50: −log10 of the molar value.
READOUT NAME: pEC50

The following compounds have reported results that may help.
COMPOUND: Cc1oc2c(CN(C)C)c(O)ccc2c(=O)c1-c1cscn1
VALUE REPORTED: < 3.52
--
COMPOUND: COc1cc(C(=O)NC(=S)N(CCc2ccccc2)CCc2ccccc2)cc(OC)c1OC
VALUE REPORTED: < 3.52

Which pEC50 value belongs to O=C(Nc1ccncc1)Nc1ccccn1 ?
5.30

Which pEC50 value belongs to Cc1cccc(C(=O)NCC(c2ccco2)N2CCc3ccccc32)c1 (stereo not given) ?
< 3.52

Which pEC50 value belongs to CN(C)Cc1c(C(=O)NN=Cc2ccccc2OCc2c(F)cccc2Cl)nnn1-c1nonc1N ?
6.94

Which pEC50 value belongs to Cc1ccc(C(=O)ON=C(N)c2ccccn2)c(C)c1 ?
4.83

Which pEC50 value belongs to Cc1ccc(SCc2c(C(=O)NN=Cc3ccoc3)nnn2-c2nonc2N)cc1 ?
< 3.52

Which pEC50 value belongs to CCCCn1nc(NC(=O)CC(C)C)c2cc3cc(OC)ccc3nc21 ?
< 3.52

Which pEC50 value belongs to O=C(CS(=O)(=O)c1ccccc1)Nc1ncc([N+](=O)[O-])s1 ?
< 3.52

Which pEC50 value belongs to Fc1ccccc1Nc1nc(-c2ccncc2)nc2ccccc12 ?
< 3.52

###

# TARGET ENTITY: Glycogen synthase kinase-3 beta (Homo sapiens)
# ASSAY TEXT: concentration-response blocking of human GSK3B – biochemical, luminescence, cell-free homogeneous, retest, dose response (AID 434954)
pEC50: −log10 of the molar value.
READOUT NAME: pEC50

The following compounds have reported results that may help.
COMPOUND: CCCN(CCC)Cc1c(C(=O)NN=Cc2ccsc2)nnn1-c1nonc1N [SMR000620321]
TARGET ENTITY: Glycogen synthase kinase-3 beta (Homo sapiens)
pEC50: 5.38
--
COMPOUND: CNc1nc(N)nc(-c2cc(Cl)ccc2OC)n1
TARGET ENTITY: Glycogen synthase kinase-3 beta (Homo sapiens)
pEC50: < 3.52
--
COMPOUND: O=c1[nH]c(N=NCc2ccccc2)nc2ccccc12 [MLS000571403]
TARGET ENTITY: Glycogen synthase kinase-3 beta (Homo sapiens)
pEC50: < 3.52
--
COMPOUND: Nc1nc(NCCN2CCOCC2)nc(NCc2ccccc2)c1[N+](=O)[O-] [SMR000434816]
TARGET ENTITY: Glycogen synthase kinase-3 beta (Homo sapiens)
pEC50: 4.58
--
COMPOUND: Cc1ccccc1-c1nnc(SCCOc2ccc3c(C)cc(=O)oc3c2)o1
TARGET ENTITY: Glycogen synthase kinase-3 beta (Homo sapiens)
pEC50: < 3.52
--
COMPOUND: O=C(Nc1ccccc1)Nc1ccccn1 [1-phenyl-3-pyridin-2-ylurea]
TARGET ENTITY: Glycogen synthase kinase-3 beta (Homo sapiens)
pEC50: < 3.52
--
COMPOUND: Nc1ncnc(N(c2ccccc2)C2CCCCC2)c1[N+](=O)[O-]
TARGET ENTITY: Glycogen synthase kinase-3 beta (Homo sapiens)
pEC50: < 3.52
--
COMPOUND: CC(C)N1C(=O)N(c2ccc(Cl)cc2)C(C)(O)CC1(C)C (stereo not given) [SMR000539554]
TARGET ENTITY: Glycogen synthase kinase-3 beta (Homo sapiens)
pEC50: < 3.52

Checklist item: pEC50 tested on Glycogen synthase kinase-3 beta (Homo sapiens), entry CC1=Nc2ncnn2C(c2cccnc2)C1C(=O)OCc1ccccc1 (stereo not given) , value?
4.55

Checklist item: pEC50 tested on Glycogen synthase kinase-3 beta (Homo sapiens), entry Nn1c(SCc2cccc(Br)c2)nnc1-c1ccncc1 , value?
< 3.52

###

# TARGET ENTITY: Glycogen synthase kinase-3 beta (Homo sapiens, UniProt P49841)
# ASSAY TEXT: concentration-response blocking of human GSK3B – biochemical, luminescence, cell-free homogeneous, retest, dose response (AID 434954)
READOUT NAME: EC50

The following compounds have reported results that may help.
COMPOUND: Clc1ccc(CSc2nnc(-c3ccncc3)o2)c(Cl)c1
EC50: 6.31 µM
//
COMPOUND: O=C(NCCCN1CCCCC1)c1ccc2c(c1)NC(=O)c1ccccc1S2
EC50: > 300 µM
//
COMPOUND: CCOc1ccc(CNC(=O)C2CCN(c3nnc(C)c4c(C)n(-c5ccc(C)cc5)nc34)CC2)cc1
EC50: > 300 µM
//
COMPOUND: COc1ccc2nc3c(cc2c1)c(NC(=O)C1CCCO1)nn3CC(C)C (stereo unspecified)
EC50: 0.946 µM
//
COMPOUND: CCOc1ccccc1C=NNC(=O)c1nnn(-c2nonc2N)c1CN1CCC(C)CC1
EC50: > 300 µM
//
COMPOUND: CCOC(=O)C1C(C)=Nc2ncnn2C1c1cccs1 (stereo unspecified)
EC50: 57.9 µM

Which EC50 value belongs to Cc1cc(C)n2nc(C(=O)OCC(=O)NC(=O)c3ccccc3)nc2n1 ?
> 300 µM

Which EC50 value belongs to O=C(Nc1cccc(NC(=O)c2ccc3c(c2)OCO3)c1)c1ccccc1 ?
> 300 µM

Which EC50 value belongs to O=C(Nc1ccsc1C(=O)NC1CC1)c1ccccc1 ?
9.98 µM

Which EC50 value belongs to Nc1nonc1-n1nnc(C(=O)NN=Cc2ccc(Br)cc2)c1CN1CCOCC1 ?
> 300 µM

Which EC50 value belongs to CCCNCC1COc2ccccc2O1 (stereo unspecified) ?
> 300 µM

Which EC50 value belongs to O=S(=O)(NCCC1CC1(Cl)Cl)c1ccc(Cl)cc1 (stereo unspecified) ?
> 300 µM

Which EC50 value belongs to O=C(C1CCCO1)N1N=C(c2ccc(Br)cc2)CC1c1ccco1 (stereo unspecified) ?
> 300 µM

Which EC50 value belongs to Nc1nonc1-n1nnc(C(=O)NN=Cc2cccc(Cl)c2)c1CN1CCCC1 ?
5.25 µM

Which EC50 value belongs to COc1ccc(CNC(=O)CN(Cc2ccco2)C(=O)CCC(=O)Nc2ccccn2)cc1 ?
> 300 µM

Which EC50 value belongs to Oc1ccc(CNCC2COc3ccccc3O2)cc1 (stereo unspecified) ?
> 300 µM

###

# TARGET ENTITY: Glycogen synthase kinase-3 beta (Homo sapiens)
# ASSAY TEXT: concentration-response blocking of human GSK3B – biochemical, luminescence, cell-free homogeneous, retest, dose response (AID 434954)
pEC50: −log10 of the molar value.
READOUT NAME: pEC50

Which pEC50 value belongs to COC(=O)c1nnn(-c2nonc2N)c1CN1CCc2ccccc21 ?
5.16

Which pEC50 value belongs to COc1cccc2c1cc1c(=O)n(CC(=O)N3CCCCCC3)nc(C)n12 ?
< 3.52

Which pEC50 value belongs to CC1CN(c2nc(Nc3ccccc3)nc(N)c2[N+](=O)[O-])CC(C)O1 (stereo unspecified) ?
4.45

Which pEC50 value belongs to O=C(OCCN1CCCCC1)c1ccc(O)cc1 ?
< 3.52

Which pEC50 value belongs to C[O+]=N[CH-]c1ccc(N2CCOCC2)c([N+](=O)[O-])c1 ?
< 3.52
